Test Protocol: 2-63 releases 12b in aqueous buffer (HPLC)
Type: physicochemical
Run Conditions: PBS buffer; 2-63 50 μM, PBS pH 7.4, 5% acetonitrile, 37° C., from HPLC peak area; read-out: half-life of 2-63 (decomposition, release of free ITC 12b) (converted)
Description: NAC conjugate 2-63 gradually releases free ITC 12b under physiological condition. The NAC conjugate of ITC could reversibly form free ITCs in aqueous solution (Zhang, Y., Carcinogenesis 2012, 33, 2-9). To test this possibility on the setting of ITC-ARi, 2-63 (50 μM) was dissolved in PBS at physiological pH (7.4), and its decomposition was monitored at 37° C. using HPLC. […] 2-63 releases 12b in aqueous buffer. […] The sample was immediately analyzed right after dilution. […]
Readout Name: half-life at 50 μM (h)
Answers are plain numbers, in h.

Query: Please report the recorded half-life at 50 μM for CC(=O)N[C@H](CSC(=S)NCCCCCCc1ccc(N2C(=S)N(c3ccc(C#N)c(C(F)(F)F)c3)C(=O)C2(C)C)cn1)C(=O)O .
Result: 3.4

All values here come from patent US12133846B2.
